- Method notes: Cmax in Lewis rat blood at 30 mg/kg, po administered as single dose measured 8 hrs post dose
Readout label: Cmax (ng/mL)
Numeric answer only, unit ng/mL assumed.

The value of Cmax measured for the compound COC(=O)[C@H](CCN(C)C)N(C)C(=O)c1c(C)cc(-c2cccc(NS(=O)(=O)c3cc(C)c(Cl)cc3C)c2)cc1C turned out to be 364

---

- Experimental system: Sphingosine 1-phosphate receptor 4 (Homo sapiens, UniProt O95977)
- Sequence (O95977 whole entry): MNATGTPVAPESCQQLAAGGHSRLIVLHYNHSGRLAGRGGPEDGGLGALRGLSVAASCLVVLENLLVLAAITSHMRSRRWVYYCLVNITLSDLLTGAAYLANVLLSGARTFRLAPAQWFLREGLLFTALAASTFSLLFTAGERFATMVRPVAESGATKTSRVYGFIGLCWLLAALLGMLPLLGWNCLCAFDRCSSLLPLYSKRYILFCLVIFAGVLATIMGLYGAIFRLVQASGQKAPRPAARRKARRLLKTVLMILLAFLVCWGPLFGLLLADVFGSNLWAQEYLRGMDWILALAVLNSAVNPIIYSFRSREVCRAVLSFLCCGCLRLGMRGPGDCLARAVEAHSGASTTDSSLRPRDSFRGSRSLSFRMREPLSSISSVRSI
- Method notes: Agonist activity at human S1P4R receptor expressed in CHO cell membranes by [35S]GTPgamma binding assay
- Type: functional
Readout label: pEC50
Worth noting: pEC50 values are minus log10 of concentrations stated in mol/L.

The recorded pEC50 for Cc1cc(S(=O)(=O)Nc2cccc(-c3cc(C)c(C(=O)N(C)[C@@H](CCN(C)C)C(=O)O)c(C)c3)c2)c(C)cc1Cl is 5.92

---

- Method notes: Stability in pH 7.4 buffer assessed as compound hydrolysis measured after 18 hrs by UPLC
- Assay type: physicochemical
- Assay context: read-out: Drug degradation
Readout label: degraded at 18 h (%)
Your answer should be a plain number; it is taken to be in %.

Record COC(=O)[C@H](CCN(C)C)N(C)C(=O)c1c(C)cc(-c2cccc(NS(=O)(=O)c3cc(C)c(Cl)cc3C)c2)cc1C , field degraded at 18 h: 48

---

- Experimental system: UniProtKB Q99500
- Sequence (Q99500 whole entry): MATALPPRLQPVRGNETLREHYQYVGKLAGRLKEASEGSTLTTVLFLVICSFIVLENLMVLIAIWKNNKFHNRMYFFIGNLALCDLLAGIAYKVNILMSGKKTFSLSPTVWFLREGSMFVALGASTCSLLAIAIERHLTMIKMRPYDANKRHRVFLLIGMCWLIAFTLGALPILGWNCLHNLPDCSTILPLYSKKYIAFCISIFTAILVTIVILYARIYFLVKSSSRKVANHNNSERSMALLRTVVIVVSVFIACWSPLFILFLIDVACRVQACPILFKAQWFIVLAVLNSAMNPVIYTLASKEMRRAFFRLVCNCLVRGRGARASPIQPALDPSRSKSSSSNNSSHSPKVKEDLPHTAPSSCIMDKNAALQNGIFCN
- Method notes: Agonist activity at human S1P3R receptor expressed in CHO cell membranes by [35S]GTPgamma binding assay
Readout label: EC50

Record Cc1cc(S(=O)(=O)Nc2cccc(-c3cc(C)c(C(=O)N(C)[C@@H](CCN(C)C)C(=O)O)c(C)c3)c2)c(C)cc1Cl has UniProtKB Q99500 EC50 equal to > 10 µM

---

- Experimental system: Sphingosine 1-phosphate receptor 1 (Homo sapiens, UniProt P21453)
- Sequence (P21453 whole entry): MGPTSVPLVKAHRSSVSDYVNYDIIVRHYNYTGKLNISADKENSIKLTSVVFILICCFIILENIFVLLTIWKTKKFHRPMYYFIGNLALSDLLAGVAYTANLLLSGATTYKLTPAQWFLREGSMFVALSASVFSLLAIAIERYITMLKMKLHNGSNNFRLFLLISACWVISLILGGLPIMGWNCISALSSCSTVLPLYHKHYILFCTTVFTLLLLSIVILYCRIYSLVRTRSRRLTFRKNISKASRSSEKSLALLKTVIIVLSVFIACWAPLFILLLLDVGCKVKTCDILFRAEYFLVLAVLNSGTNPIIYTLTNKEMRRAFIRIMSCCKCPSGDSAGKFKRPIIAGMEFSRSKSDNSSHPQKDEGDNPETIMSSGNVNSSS
- Method notes: Antagonist activity at human S1P1R receptor expressed in CHO cell membranes by [35S]GTPgamma binding assay
The following molecules are shown together with reported IC50 values.
Please give a number only; it is taken to be in nM.

Measured IC50 of Cc1cc(S(=O)(=O)Nc2cccc(-c3cc(C)c(C(=O)N[C@@H](C)C(=O)O)c(C)c3)c2)c(C)cc1Cl : 2.6

Entry Cc1cc(S(=O)(=O)Nc2cccc(-c3cc(C)c(C(=O)N(C)[C@@H](C)C(=O)O)c(C)c3)c2)c(C)cc1Cl , IC50 reported as 6.1

Looking up Cc1cc(S(=O)(=O)Nc2cccc(-c3cc(C)c(C(=O)N(C)[C@@H](CN(C)C)C(=O)O)c(C)c3)c2)c(C)cc1Cl , I see its IC50 listed as 8.4

Record summary for Cc1cc(S(=O)(=O)Nc2cccc(-c3cc(C)c(C(=O)N(C)[C@H](CCN(C)C)C(=O)O)c(C)c3)c2)c(C)cc1Cl : reported IC50 = 20

// field: IC50; key: Cc1cc(S(=O)(=O)Nc2cccc(-c3cc(C)c(C(=O)N(C)[C@@H](CCN(C)C)C(=O)O)c(C)c3)c2)c(C)cc1Cl ; value = 3.4

Field IC50 (entry Cc1cc(S(=O)(=O)Nc2cccc(-c3cc(C)c(C(=O)N[C@@H](CCN(C)C)C(=O)O)c(C)c3)c2)c(C)cc1Cl ) reads 12

Measured IC50, Cc1cc(S(=O)(=O)Nc2cccc(-c3cc(C)c(C(=O)N[C@@H](CCN)C(=O)O)c(C)c3)c2)c(C)cc1Cl : 2.1
